Documented IC50 across a set of compounds
- test_system: Beta Secretase enzyme (BACE) (Homo sapiens (Human))
- Sequence (P56817 46-501): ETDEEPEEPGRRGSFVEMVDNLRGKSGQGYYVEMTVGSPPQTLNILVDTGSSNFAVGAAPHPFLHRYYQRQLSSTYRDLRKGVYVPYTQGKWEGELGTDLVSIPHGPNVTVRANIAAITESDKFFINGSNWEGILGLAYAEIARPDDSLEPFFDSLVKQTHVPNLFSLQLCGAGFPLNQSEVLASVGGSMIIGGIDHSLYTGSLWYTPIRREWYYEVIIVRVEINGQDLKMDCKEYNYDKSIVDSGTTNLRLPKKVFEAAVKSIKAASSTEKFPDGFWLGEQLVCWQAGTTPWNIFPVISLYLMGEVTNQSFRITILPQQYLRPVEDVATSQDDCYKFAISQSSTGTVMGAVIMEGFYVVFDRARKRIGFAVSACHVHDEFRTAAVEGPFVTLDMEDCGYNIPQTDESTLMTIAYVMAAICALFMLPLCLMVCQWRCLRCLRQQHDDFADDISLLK
- protocol_text: In vitro enzymatic BACE FRET assay
- Format: biochemical
- experimental_conditions: read-out: BACE1 Enzyme assay IC50
quantity_name: IC50 (nM)

>>> obs_value("NC1=N[C@@](c2cc(-c3nc4ccc(Cl)cc4o3)ccc2F)(C(F)F)[C@H]2C[C@H]2O1")
1240
>>> obs_value("COCc1cc(Cl)cnc1C(=O)Nc1ccc(Cl)c([C@@]2(CF)N=C(N)O[C@@H]3C[C@@H]32)c1")
50.8
>>> obs_value("Cc1cc(C#N)cnc1C(=O)Nc1ccc(Cl)c([C@@]2(C(F)F)N=C(N)O[C@@H]3C[C@@H]32)c1")
18.4
>>> obs_value("NC1=N[C@@](c2cc(N[C@H](c3ccc(Cl)cn3)C(F)(F)F)ccc2F)(C(F)F)[C@H]2C[C@H]2O1 (mixture of isomers)")
5240
>>> obs_value("COc1cnc2c(Nc3ccc(Cl)c([C@@]4(CF)N=C(N)O[C@@H]5C[C@@H]54)c3)nccc2c1")
1260
